Experiment: Plasma concentration by LC-MS/MS in mice bearing HCC827-ER1 tumors (PK/PD study)
Settings: female, athymic nude, mouse, plasma, oral, 100 mg/kg, 10(b) plasma concentration, 8 hr post (10b) (2 hr post osimertinib); formula (10b) 100 mg/kg PO; mean ± SD
measured-quantity: concentration at 8 h (µM)
Please state the figure in µM; there is no need to write the unit.

Req: Requested read-out: concentration at 8 h. Entry: Cc1c(N2CCC3(CC2)CO[C@@H](C)[C@H]3N)nc(C)n(-c2cccc(Cl)c2Cl)c1=O (atropisomer, axis not shown; (Ra)) [Formula (10b)]
Resp: 35.8
